Value source: patent US20230127304A1

For each of the compounds below, state its Radius.
Assay: Dynamic light scattering (DLS) aggregation
Type: physicochemical
Conditions: 20 μM compound, triplicates average
A number alone suffices; assume nm.

Please give the measured Radius for this compound: `CC1=NN(c2ccccc2)C(=O)/C1=C\c1ccc(-c2cc(C(=O)O)ccc2Cl)o1` 3.663

Please give the measured Radius for this compound: `Cc1cccn2c(=O)c3c(nc12)N1CCCCC[C@H]1[C@]1(C3)C(=O)N(Cc2ccccc2Cl)C(=O)N=C1O` 3.612

Please give the measured Radius for this compound: `O=S(=O)(Nc1nc2ccccc2nc1N1CCC[C@@H](c2nc3ccccc3[nH]2)C1)c1ccccc1` 1.585

Please give the measured Radius for this compound: `CC(=O)N/C(=C\c1ccc(Cc2nc3c([nH]2)C(=O)c2ccccc2C3=O)cc1)c1nc2c([nH]1)C(=O)c1ccccc1C2=O` 25.579

Please give the measured Radius for this compound: `C[C@@H]1Oc2ccc(C(=O)C3CCN(C(=O)[C@H]4C[C@H]4c4cccc5ccccc45)CC3)cc2NC1=O` 3.034
